target: γ-secretase (Homo sapiens (Human)); assay: Cellular γ-secretase assay (Aβ42 secretion, AlphaLisa); conditions: inhibition of Aβ42 secretion; human neuroglioma H4 cells overexpressing human APP695 Swedish double mutation; 24 hr compound incubation
Measured endpoint: EC50

INPUT: Fill in reported EC50 for this entry: CNc1nc(Nc2ccc(-n3cnc(C)n3)c(OC)c2)nc2c1C(C)(C)CN2c1ccc(F)cc1
OUTPUT: 5 nM

INPUT: Fill in reported EC50 for this entry: CNc1nc(Nc2cnc(-n3cnc(C)c3)c(OC)c2)nc2c1CCN2c1ccc(F)cc1
OUTPUT: 6 nM

INPUT: Fill in reported EC50 for this entry: CNc1nc(Nc2cnc(-n3cnc(C)c3)c(OC)c2)nc2c1C(C)(C)CN2C1CC(F)(F)C1
OUTPUT: 14 nM

INPUT: Fill in reported EC50 for this entry: CNc1nc(Nc2cnc(-n3cnc(C)c3)c(OC)c2)nc2c1C(C)(C)CN2C12CC(C(F)(F)F)(C1)C2
OUTPUT: 30 nM

INPUT: Fill in reported EC50 for this entry: CNc1nc(Nc2ccc(-n3cnc(C)n3)c(OC)c2)nc2c1C(C)(C)CN2c1cccc(F)c1F
OUTPUT: 9 nM

INPUT: Fill in reported EC50 for this entry: CNc1nc(Nc2ccc(-c3nnc(C)o3)cc2)nc2c1C(C)(C)CN2c1ccc(F)cc1
OUTPUT: 55 nM

INPUT: Fill in reported EC50 for this entry: CNc1nc(Nc2cnc(-n3cnc(C)c3)c(F)c2)nc2c1C(C)(C)CN2c1ccc(F)cc1
OUTPUT: 8 nM

INPUT: Fill in reported EC50 for this entry: CNc1nc(Nc2ccc(-n3cnc(C)n3)cc2)nc2c1C(C)(C)CN2c1ccc(F)cc1
OUTPUT: 51 nM

INPUT: Fill in reported EC50 for this entry: CNc1nc(Nc2ccc(-n3ncnc3C)c(F)c2)nc2c1C(C)(C)CN2c1ccc(F)cc1
OUTPUT: 22 nM

INPUT: Fill in reported EC50 for this entry: CNc1nc(Nc2ccc(-n3cnc(C)c3)c(F)c2)nc2c1CCN2c1ccc(F)cc1
OUTPUT: 6 nM

INPUT: Fill in reported EC50 for this entry: CNc1nc(Nc2ccc(-n3cnc(C)n3)c(OC(F)F)c2)nc2c1C(C)(C)CN2c1ccc(F)cc1
OUTPUT: 8 nM

INPUT: Fill in reported EC50 for this entry: CNc1nc(Nc2ccc(-n3cnc(C)n3)c(OC)c2)nc2c1C(C)(C)CCN2c1ccc(F)cc1
OUTPUT: 13 nM

INPUT: Fill in reported EC50 for this entry: CNc1nc(Nc2ccc(-n3cnc(C)n3)c(F)c2)nc2c1C(C)(C)CN2c1ccc(F)cc1F
OUTPUT: 22 nM

INPUT: Fill in reported EC50 for this entry: CNc1nc(Nc2cnc(-n3cnc(C)c3)c(OC)c2)nc2c1C(C)(C)CN2c1ccc(F)c(F)c1
OUTPUT: 8 nM

INPUT: Fill in reported EC50 for this entry: CNc1nc(Nc2cnc(-n3cnc(C)c3)c(OC)c2)nc2c1C(C)CN2c1ccc(F)cc1 (stereo not shown)
OUTPUT: 6 nM

INPUT: Fill in reported EC50 for this entry: COc1cc(Nc2nc(NCCO)c3c(n2)N(c2ccc(F)cc2)CC3(C)C)cnc1-n1cnc(C)c1
OUTPUT: 6 nM

###

target: γ-secretase (Homo sapiens (Human), UniProt P49768); assay: Cellular γ-secretase assay (Aβ42 secretion, AlphaLisa); conditions: inhibition of Aβ42 secretion; human neuroglioma H4 cells overexpressing human APP695 Swedish double mutation; 24 hr compound incubation
I'd be grateful if you could share measured pEC50 for these entries.
Worth noting: pEC50 values are minus log10 of concentrations stated in mol/L.

INPUT: Fill in reported pEC50 for this entry: COc1cc(Nc2nc(NCCO)c3c(n2)N(c2ccc(F)cc2)CC3(C)C)cnc1-n1cnc(Cl)c1 [Example 30]
OUTPUT: 7.96

INPUT: Fill in reported pEC50 for this entry: CNc1nc(Nc2ccc(-n3cnc(Cl)c3)c(OC)c2)nc2c1C(C)(C)CN2c1ccc(F)cc1 [Example 4]
OUTPUT: 8.15

INPUT: Fill in reported pEC50 for this entry: CNc1nc(Nc2cnc(-n3cnc(Cl)c3)c(OC)c2)nc2c1C(C)(C)CN2c1ccc(F)c(F)c1 [Example 14]
OUTPUT: 8.00

INPUT: Fill in reported pEC50 for this entry: CNc1nc(Nc2ccc(-n3cnc(C)n3)c(OC)c2)nc2c1CCN2c1ccc(F)cc1 [Example 32]
OUTPUT: 8.00

INPUT: Fill in reported pEC50 for this entry: CNc1nc(Nc2ccc(-n3cnc(C)n3)nc2)nc2c1C(C)(C)CN2c1ccc(F)cc1 [Example 13]
OUTPUT: 7.64

INPUT: Fill in reported pEC50 for this entry: CNc1nc(Nc2ccc(-n3cnc(C)c3)c(F)c2)nc2c1[C@H](C)CN2c1ccc(F)cc1 (single isomer, unassigned) [Example 46p]
OUTPUT: 8.30

INPUT: Fill in reported pEC50 for this entry: CNc1nc(Nc2cnc(-n3cnc(C)c3)c(F)c2)nc2c1C(C)(C)CN2c1ccc(F)cc1F [Example 26]
OUTPUT: 8.22

INPUT: Fill in reported pEC50 for this entry: CNc1nc(Nc2cnc(-n3cnc(Cl)c3)c(OC)c2)nc2c1C(C)(C)CN2c1ccc(F)cc1F [Example 23]
OUTPUT: 8.10

INPUT: Fill in reported pEC50 for this entry: CNc1nc(Nc2ccc(-n3cnc(C)c3)c(F)c2)nc2c1[C@@H](C)CN2c1ccc(F)cc1 (single isomer, unassigned) [Example 46q]
OUTPUT: 8.15

INPUT: Fill in reported pEC50 for this entry: CNc1nc(Nc2cnc(-n3cnc(Cl)c3)c(OC)c2)nc2c1C(C)(C)CN2c1ccc(F)cc1 [Example 6]
OUTPUT: 8.05

INPUT: Fill in reported pEC50 for this entry: CNc1nc(Nc2cnc(-n3cnc(C)c3)c(OC)c2)nc2c1C(C)(C)CN2c1cccc(F)c1F [Example 44]
OUTPUT: 8.30

INPUT: Fill in reported pEC50 for this entry: CNc1nc(Nc2ccc(-n3cnc(C)c3)c(F)c2)nc2c1C(C)(C)CN2c1ccc(F)cc1 [Example 34]
OUTPUT: 8.10

INPUT: Fill in reported pEC50 for this entry: CNc1nc(Nc2ccc(-c3nnc(C)o3)c(OC)c2)nc2c1C(C)(C)CN2c1ccc(F)cc1 [Example 27]
OUTPUT: 7.52

INPUT: Fill in reported pEC50 for this entry: CNc1nc(Nc2ccc(-n3cnc(C)n3)c(OC)c2)nc2c1C(C)(C)CN2C12CC(C(F)(F)F)(C1)C2 [Example 21]
OUTPUT: 7.14

INPUT: Fill in reported pEC50 for this entry: CNc1nc(Nc2cnc(-n3cnc(C)c3)c(OC)c2)nc2c1C(C)(C)CN2c1ccc(F)cc1F [Example 20]
OUTPUT: 8.10

INPUT: Fill in reported pEC50 for this entry: Cc1ncn(-c2ccc(Nc3nc(NCCO)c4c(n3)N(c3ccc(F)cc3)CC4(C)C)cc2F)n1 [Example 31]
OUTPUT: 7.82

INPUT: Fill in reported pEC50 for this entry: CNc1nc(Nc2ccc(-c3cnc(C)o3)c(F)c2)nc2c1C(C)(C)CN2c1ccc(F)cc1 [Example 16]
OUTPUT: 7.52

INPUT: Fill in reported pEC50 for this entry: CNc1nc(Nc2ccc(-n3cnc(C)c3)c(F)c2)nc2c1C(C)(C)CCN2c1ccc(F)cc1 [Example 37]
OUTPUT: 8.10

INPUT: Fill in reported pEC50 for this entry: CNc1nc(Nc2ccc(-n3cnc(C)n3)c(OC)c2)nc2c1C(C)(C)CN2C1CC(F)(F)C1 [Example 17]
OUTPUT: 7.72

INPUT: Fill in reported pEC50 for this entry: CNc1nc(Nc2ccc(-n3cnc(C)c3)c(F)c2)nc2c1C(C)(C)CN2c1ccc(F)cc1Cl [Example 45]
OUTPUT: 8.40

INPUT: Fill in reported pEC50 for this entry: CNc1nc(Nc2cnc(-n3cnc(C)c3)c(F)c2)nc2c1C(C)(C)CN2c1cccc(F)c1F [Example 42]
OUTPUT: 8.10

INPUT: Fill in reported pEC50 for this entry: CNc1nc(Nc2ccc(-n3cnc(C)n3)c(F)c2)nc2c1C(C)(C)CN2c1ccc(F)c(F)c1 [Example 9]
OUTPUT: 7.59

INPUT: Fill in reported pEC50 for this entry: CNc1nc(Nc2ccc(-n3cnc(C)n3)c(OC)c2)nc2c1C(C)CN2c1ccc(F)cc1 (stereo not shown) [Example 39]
OUTPUT: 8.22

INPUT: Fill in reported pEC50 for this entry: CNc1nc(Nc2ccc(-n3cnc(C)c3)c(F)c2)nc2c1C(C)(C)CN2c1cccc(F)c1F [Example 43]
OUTPUT: 8.30

INPUT: Fill in reported pEC50 for this entry: COc1cc(Nc2nc(NCCO)c3c(n2)N(c2ccc(F)cc2)CC3(C)C)ccc1-n1cnc(C)n1 [Example 28]
OUTPUT: 8.10

INPUT: Fill in reported pEC50 for this entry: CNc1nc(Nc2ccc(-n3cnc(C)c3)cc2)nc2c1C(C)(C)CN2c1ccc(F)cc1 [Example 12]
OUTPUT: 7.89

INPUT: Fill in reported pEC50 for this entry: CNc1nc(Nc2ccc(-n3cnc(C)n3)c(F)c2)nc2c1C(C)(C)CN2c1ccc(F)cc1 [Example 3]
OUTPUT: 7.80

INPUT: Fill in reported pEC50 for this entry: CNc1nc(Nc2ccc(-n3cnc(C)n3)c(OC)c2)nc2c1C(C)(C)CN2c1ccc(F)c(F)c1 [Example 8]
OUTPUT: 8.30

Data origin, for the record: patent US10669276B2
